Biological target: T1, NHERF3_4, Q5T2W1
T1 sequence (Q5T2W1 373-468, limits assumed, looked up): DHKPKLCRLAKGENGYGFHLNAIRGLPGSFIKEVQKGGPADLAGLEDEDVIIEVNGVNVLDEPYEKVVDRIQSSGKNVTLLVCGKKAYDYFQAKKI
Assay: holdup assay
Set-up: key: below the threshold = too weak to quantify, mostly under pKd 3.1 to 4
Conditions: plain residues with an end cap or a label only (N-terminal biotin on a linker: ado-ado)

BINDER: TETASVCTKV [SLC23A1, Q9UHI7]
pKd: 3.7
//
BINDER: FVHPILQSAV [PRKCA, P17252]
pKd: below the threshold
//
BINDER: GFGEERESIL [KIDINS220, Q9ULH0]
pKd: below the threshold
//
BINDER: EDLTKNHDEL [RCN1, Q15293]
pKd: below the threshold
//
BINDER: QKNKDKEYYV [NRXN3_rs746444206, Q9Y4C0]
pKd: below the threshold
